Field: GI50. Provide a value for each of the compounds that follow.
system: SF-295; experiment: NCI tumour cell line growth inhibition, 48 h
Activity calls are given as the source filed them. Cut-off read from the data, not from the text of the source: active = GI50 up to about 1.1 µM and inactive = higher.

Challenge: Write down measured GI50 (SF-295) for this compound. Cc1ccc(NC(=O)c2cc3ccccc3c(/N=N/c3cc(S(=O)(=O)O)ccc3O)c2O)c(C)c1
Response given: 10 µM (inactive)

Challenge: Write down measured GI50 (SF-295) for this compound. CC1CNC(c2cccc(OCc3ccc(COc4cccc(C5=NC(C)CN5)c4)cc3)c2)=N1 (stereo not given)
Response given: 66.8 µM (inactive)

Challenge: Write down measured GI50 (SF-295) for this compound. C[P+](C)(CC(F)(F)F)c1ccccc1
Response given: > 100 µM (inactive)

Challenge: Write down measured GI50 (SF-295) for this compound. O=S1(=O)OCCOS(=O)(=O)C1S(=O)(=O)c1ccc2ccccc2c1
Response given: > 100 µM (inactive)

Challenge: Write down measured GI50 (SF-295) for this compound. CCOP(=O)(OCC)C(c1ccccc1)N(C(=O)NC(F)(F)F)c1cccc(F)c1 (stereo not given)
Response given: > 100 µM (inactive)

Challenge: Write down measured GI50 (SF-295) for this compound. CC1CCN(c2cc(-c3cc4ccccc4o3)oc(=O)c2C#N)CC1
Response given: 68.9 µM (inactive)

Challenge: Write down measured GI50 (SF-295) for this compound. Cc1ccc2c(CC(=O)O)cc(=O)oc2c1
Response given: > 100 µM (inactive)

Challenge: Write down measured GI50 (SF-295) for this compound. O=C(/C=C/c1ccc(O)c(O)c1)OCCOC(=O)/C=C/c1ccc(O)c(O)c1
Response given: 21.5 µM (inactive)

Challenge: Write down measured GI50 (SF-295) for this compound. COC1=CC(=O)c2c(cc(COP(=O)(N(C)CCBr)N(C)CCBr)n2C)C1=O
Response given: < 0.0164 µM (active)

Challenge: Write down measured GI50 (SF-295) for this compound. CCOC(=O)c1c(N2CCCC2)[nH]c(=O)c(C(c2c(O)c(C(=O)OCC)c(N3CCCC3)[nH]c2=O)C(C)C)c1O
Response given: > 100 µM (inactive)

Challenge: Write down measured GI50 (SF-295) for this compound. CC(C)/C(Cl)=N\OC(=O)Nc1ccc(C#N)cc1
Response given: 19 µM (inactive)

Challenge: Write down measured GI50 (SF-295) for this compound. O=C1Cc2ccccc2N1c1c(Cl)cccc1Cl
Response given: 38.4 µM (inactive)

Challenge: Write down measured GI50 (SF-295) for this compound. Cc1c(Cl)cccc1NC(=O)C(=O)C(C(=O)c1ccccc1-c1ccccc1)C1OC(=O)c2ccccc21 (stereo not given)
Response given: 19.1 µM (inactive)

Challenge: Write down measured GI50 (SF-295) for this compound. O=C1Nc2ccccc2C(=O)/C1=C/NC(=S)NC1CCCCC1
Response given: > 100 µM (inactive)

Challenge: Write down measured GI50 (SF-295) for this compound. C=C1[C@H](OC(=O)C(C)C)[C@]23CC4(O)[C@@H]5[C@@]6(C)CCC[C@]57C([C@@H]2C[C@@]1(O)[C@H](O)[C@@H]73)N4C6
Response given: > 100 µM (inactive)

Challenge: Write down measured GI50 (SF-295) for this compound. CN(N=O)C(=O)N(N)CCCCC(NC(=O)OCc1ccccc1)C(=O)OCc1ccccc1 (stereo not given)
Response given: 75.9 µM (inactive)

Challenge: Write down measured GI50 (SF-295) for this compound. COC(=O)C1=CC2OC1(C)CCC2=O (stereo not given)
Response given: > 100 µM (inactive)

Challenge: Write down measured GI50 (SF-295) for this compound. Cc1ccc(S(=O)(=O)NN=C2C(C)(C)CC2(C)C)cc1
Response given: > 100 µM (inactive)

Challenge: Write down measured GI50 (SF-295) for this compound. CC(=O)C1=C(C)N(c2ccc(C)cc2)C2(O)C3=C(C(=O)c4ccccc4C3=O)C(O)=CC12Cl (stereo not given)
Response given: 5.81 µM (inactive)

Challenge: Write down measured GI50 (SF-295) for this compound. CC1=C(C(=O)NCc2ccccc2)C(c2ccccc2O)C(C(=O)NCc2ccccc2)=C(C)N1
Response given: 21.1 µM (inactive)

The origin of these recorded values is ChEMBL document CHEMBL1201862.
